Items are presented alongside their recorded AOI in soybean oil at 100° C. with 0.05% test substance.
testMethodNotes: Accelerated autoxidation of lipids by air, Rancimat apparatus, soybean oil
conditionLabel: antioxidative index = IP(with test solution)/IP(control sample), soybean oil purified over alumina grade N
The answer should be written as a number, with no unit following it.

>  <compound>
Cc1c(C)c2c(c(C)c1O)CC[C@@](C)(CCC[C@H](C)CCC[C@H](C)CCCC(C)C)O2 [α-Tocopherol, reference compound]

>  <reportedResult>
5.1

$$$$
>  <compound>
Cc1cc(C(C)(C)C)c(O)c(C(C)(C)C)c1 [3,5-Di-tert-butyl-4-hydroxytoluene, reference compound]

>  <reportedResult>
4.8

$$$$
>  <compound>
O=C1O[C@H]([C@@H](O)CO)C(O)=C1O [Vitamin C, reference compound]

>  <reportedResult>
1.2

$$$$
>  <compound>
CC(C)[C@@H]1CC[C@@H](C)C[C@H]1OC(=O)NCc1ccc(O)c(O)c1

>  <reportedResult>
6.5

$$$$
>  <compound>
CCCCC(CC)COC(=O)NCc1ccc(O)c(O)c1 (stereo not shown)

>  <reportedResult>
10.7

$$$$

Data request: Give the measured AOI in soybean oil at 100° C. with 0.05% test substance of COC(=O)NCc1ccc(O)c(O)c1 [Example 1, N-(3,4-Dihydroxybenzyl)-O-methylurethane] .
Data returned: 7.2

Data request: What AOI in soybean oil at 100° C. with 0.05% test substance value was documented for this compound, CCCCCCOC(=O)NCc1ccc(O)c(O)c1 [Example 3, N-(3,4-Dihydroxybenzyl)-O-hexylurethane] ?
Data returned: 14.5
